Test system: Vero E6 infected with SARS-CoV-2
Test: morphology score (similarity to uninfected cells); higher = more like uninfected cells
Details: 24 h
Use 0.03 as the dividing line for morphology score, with the line itself on the class 1 side and lower values as class 0.

Example entries begin here.
- Molecule: "CC(C)(C)c1ccc2cc(C#N)c(C#N)cc2c1 (10 µM)"
  Assigned Class: "class 1"
- Molecule: "Cc1cc(Nc2cc(C)c(C#N)c(N[C@@H](C)CCCC(C)(C)O)n2)n[nH]1 (10 µM)"
  Assigned Class: "class 0"
- Molecule: "N[C@@H](CSCCCO)C(=O)O [fudosteine] (10 µM)"
  Assigned Class: "class 1"
- Molecule: "CC[C@]1(O)C[C@H]2CN(CCc3c([nH]c4ccccc34)[C@@](C(=O)OC)(c3cc4c(cc3OC)N(C=O)[C@H]3[C@@](O)(C(=O)OC)[C@H](OC(C)=O)[C@]5(CC)C=CCN6CC[C@]43[C@@H]65)C2)C1 [Vincristine (sulfate)] (10 µM)"
  Assigned Class: "class 0"
- Molecule: "CCC(=O)NC1CCc2cccc(OC)c2C1 (centres undefined) (10 µM)"
  Assigned Class: "class 0"

Exercise: State whether the measured morphology score reaches 0.03, counting equality as reaching it, for N#Cc1cnc2cnc(NCc3cccnc3)cc2c1Nc1ccc(F)c(Cl)c1 (10 µM)
Solution: class 1

Exercise: Here is the next molecule: Cc1cc(SCc2sc(-c3ccc(C(F)(F)F)c(F)c3)nc2C)ccc1OCC(=O)O (10 µM)
Solution: class 1

Exercise: Here is the next molecule: OCc1cc(C(O)CNCCCCCCOCCCCc2ccccc2)ccc1O (centres undefined) [salmeterol] (10 µM)
Solution: class 1

Exercise: Then Cc1ccc2nc(N)[nH]c(=O)c2c1Sc1ccncc1 [nolatrexed] (10 µM) ?
Solution: class 0

Exercise: Follow-up entry: C[C@H]1CC[C@H](n2c3cnccc3c3cnc(Nc4ccc5c(n4)CCN(C(=O)CO)C5)nc32)CC1 (10 µM)
Solution: class 0

Exercise: Further, for COc1ccc(CC2NCCc3c2[nH]c2ccc(C)cc32)c(Cl)c1OC (centres undefined) (0.833333 µM) ?
Solution: class 0

Exercise: What about CC1=C(/C=C/C(C)=C/C=C/C(C)=C/C=C/C=C(C)/C=C/C=C(C)/C=C/C2=C(C)C(=O)[C@@H](O)CC2(C)C)C(C)(C)C[C@H](O)C1=O [astaxanthin] (10 µM) ?
Solution: class 0

Exercise: Can you handle CCOC(=O)c1ccc(N)cc1 [benzocaine] (10 µM) next?
Solution: class 0

Exercise: Also check CC(=O)CC(=O)O [lithium-acetoacetate] (10 µM)
Solution: class 1

Exercise: Same lookup for O=c1cc(N2CCNCC2)oc2c(-c3ccccc3)cccc12 (10 µM) , please.
Solution: class 1

Exercise: For N=C(N)NCCN1CCCCCCC1 [guanethidine] (10 µM) then?
Solution: class 0

Exercise: Another molecule to look at: CSC[C@H](N)C(=O)O [S-methylcysteine] (10 µM)
Solution: class 0

Exercise: Next molecule: COc1ccc(COc2ccc(Cc3cnc(N)nc3N)cc2OC)cc1 (10 µM)
Solution: class 0

Exercise: // query: Clc1ccc2c(c1)CCc1cccnc1C2=C1CCNCC1 [desloratadine] (10 µM)
Solution: class 1
